Catalogue of IC50 values
# System: spindle assembly checkpoint
# methodSummary: SAC-Formation - Nocodazole-Induced Assay
# Assay type: cell-based
# assayConditions: Homo sapiens; HeLa cells, nocodazole 0.1 μg/ml, 24 h, phosphorylated histone H3 on serine 10
experimentalReadout: IC50

molecule="COc1ccc(NC(=O)c2c(C)nsc2Nc2nccnc2C#N)cn1 [Example 24]" measuredresult="3800 nM"
molecule="CCc1ccccc1NC(=O)c1c(C)nsc1Nc1nc(C)nc2sccc12 [Example 38]" measuredresult="690 nM"
molecule="Cc1nsc(Nc2ccc(C(N)=O)cn2)c1C(=O)Nc1ccc(Cl)c(F)c1 [Example 151]" measuredresult="1700 nM"
molecule="CCc1ccccc1NC(=O)c1c(C)nsc1Nc1cc(OC)ccn1 [Example 134]" measuredresult="> 20000 nM"
molecule="COc1ccc(NC(=O)c2c(C)nsc2Nc2ccc(C#N)cn2)cc1F [Example 162]" measuredresult="> 20000 nM"
molecule="CCOC(=O)c1cnn2ccc(Nc3snc(C)c3C(=O)Nc3ccc(F)c(F)c3)nc12 [Example 55]" measuredresult="220 nM"
molecule="Cc1nsc(Nc2cc(C#N)ccn2)c1C(=O)Nc1ccc(Oc2ccccc2)nc1 [Example 111]" measuredresult="200 nM"
molecule="Cc1nsc(Nc2ncc(C(=O)N(C)C)s2)c1C(=O)Nc1ccc(F)c(F)c1 [Example 49]" measuredresult="350 nM"
molecule="CCc1ccccc1NC(=O)c1c(C)nsc1Nc1ccc(C(=O)OC)cn1 [Example 145]" measuredresult="7200 nM"
molecule="CCc1ccccc1NC(=O)c1c(C)nsc1Nc1cnc(C(=O)OC)cn1 [Example 146]" measuredresult="1400 nM"
molecule="CNC(=O)c1cnc(Nc2snc(C)c2C(=O)Nc2ccc(F)c(F)c2)cn1 [Example 75]" measuredresult="81 nM"
molecule="CCNC(=O)c1cnc(Nc2snc(C)c2C(=O)Nc2ccc(OC)nc2)s1 [Example 154]" measuredresult="4300 nM"
molecule="CCc1ccccc1NC(=O)c1c(C)nsc1Nc1cnc2ccc(Cl)cc2n1 [Example 41]" measuredresult="160 nM"
molecule="COc1ccc(NC(=O)c2c(C)nsc2Nc2nc3cccnc3s2)cn1 [Example 89]" measuredresult="1400 nM"
molecule="CCOC(=O)c1cnc(Nc2snc(C)c2C(=O)Nc2ccc(F)c(F)c2)o1 [Example 96]" measuredresult="1200 nM"
molecule="CCc1ccccc1NC(=O)c1c(C)nsc1Nc1cnc2cc(Cl)ccc2n1 [Example 86]" measuredresult="530 nM"
molecule="CCNc1cncc(Nc2snc(C)c2C(=O)Nc2ccc(F)c(F)c2)n1 [Example 78]" measuredresult="390 nM"
molecule="Cc1nsc(Nc2cncc(C(=O)N3CCN(C)CC3)n2)c1C(=O)Nc1ccc(F)c(F)c1 [Example 133]" measuredresult="15000 nM"

* * *

# System: spindle assembly checkpoint
# methodSummary: SAC-Formation - Nocodazole-Induced Assay
# Format: cell-based
# assayConditions: Homo sapiens; HeLa cells, nocodazole 0.1 μg/ml, 24 h, phosphorylated histone H3 on serine 10
Mark yes (1) for IC50 under 0.06 µM, no (0) if at or over.

compoundstructurestring=CCOc1ccc(NC(=O)c2c(C)nsc2Nc2cnc3ccccc3n2)cn1 studysystem="spindle assembly checkpoint" classassignment="no (0)"
compoundstructurestring=Cc1nsc(Nc2cnc(C(F)(F)F)cn2)c1C(=O)Nc1ccc(F)c(F)c1 studysystem="spindle assembly checkpoint" classassignment="yes (1)"
compoundstructurestring=COc1ccc(NC(=O)c2c(C)nsc2Nc2cnc(C(F)(F)F)cn2)cn1 studysystem="spindle assembly checkpoint" classassignment="yes (1)"
compoundstructurestring=CCc1ccccc1NC(=O)c1c(C)nsc1Nc1ccncn1 studysystem="spindle assembly checkpoint" classassignment="no (0)"
compoundstructurestring=COc1ccc(NC(=O)c2c(C)nsc2Nc2nc3ccc(C)cc3s2)cn1 studysystem="spindle assembly checkpoint" classassignment="no (0)"
compoundstructurestring=Cc1cncc(Nc2snc(C)c2C(=O)Nc2ccc(F)c(F)c2)n1 studysystem="spindle assembly checkpoint" classassignment="yes (1)"
compoundstructurestring=Cc1nsc(Nc2cnc3ccccc3n2)c1C(=O)Nc1ccc(Oc2ccc(F)cc2F)nc1 studysystem="spindle assembly checkpoint" classassignment="no (0)"
compoundstructurestring=COc1ccc(NC(=O)c2c(C)nsc2Nc2nc(C(N)=O)cs2)cn1 studysystem="spindle assembly checkpoint" classassignment="no (0)"
compoundstructurestring=COc1ccc(NC(=O)c2c(C)nsc2Nc2cncc(C(F)(F)F)n2)cn1 studysystem="spindle assembly checkpoint" classassignment="yes (1)"

* * *

# Tested on: spindle assembly checkpoint
# methodSummary: SAC-Formation - Paclitaxel-Induced Assay
# Assay type: cell-based
# assayConditions: Homo sapiens; HeLa cells, paclitaxel 0.05 μM, 24 h, phosphorylated histone H3 on serine 10
# From the text: The spindle assembly checkpoint assures the proper segregation of chromosomes during mitosis. Upon entry into mitosis, chromosomes begin to condensate which is accompanied by the phosphorylation of histone H3 on serine 10. Dephosphorylation of histone H3 on serine 10 begins in anaphase and ends at early telophase. […] The mitotic breakthrough can be detected by the decrease of cells with phosphorylation of histone H3 on serine 10. […]
pIC50: −log10 of the molar value.
experimentalReadout: pIC50

molecule="CCc1ccccc1NC(=O)c1c(C)nsc1Nc1cc(-n2ccnc2)ncn1 [Example 9]" studysystem="spindle assembly checkpoint" cmp== measuredresult=5.52
molecule="Cc1nsc(Nc2cnc3cc(C(F)(F)F)ccc3n2)c1C(=O)Nc1ccc(Cl)c(F)c1 [Example 68]" studysystem="spindle assembly checkpoint" cmp== measuredresult=7.52
molecule="Cc1nsc(Nc2cncc(C(=O)N(C)C)n2)c1C(=O)Nc1ccc(F)c(F)c1 [Example 104]" studysystem="spindle assembly checkpoint" cmp== measuredresult=5.12
molecule="CNC(=O)c1cncc(Nc2snc(C)c2C(=O)Nc2ccc(F)c(F)c2)n1 [Example 70]" studysystem="spindle assembly checkpoint" cmp== measuredresult=6.03
molecule="Cc1nsc(Nc2cnc3ccccc3n2)c1C(=O)Nc1ccc(Cl)c(F)c1 [Example 40]" studysystem="spindle assembly checkpoint" cmp== measuredresult=6.92
molecule="Cc1nsc(Nc2cc(C#N)ccn2)c1C(=O)Nc1ccc(OC2CCCCC2)nc1 [Example 118]" studysystem="spindle assembly checkpoint" cmp== measuredresult=7.25
molecule="CCOC(=O)c1cnc(Nc2snc(C)c2C(=O)Nc2ccc(F)c(F)c2)o1 [Example 96]" studysystem="spindle assembly checkpoint" cmp== measuredresult=5.85
molecule="COC(=O)c1ccc(Nc2snc(C)c2C(=O)Nc2ccc(OC)nc2)nc1 [Example 31]" studysystem="spindle assembly checkpoint" cmp=< measuredresult=4.70
molecule="Cc1nsc(Nc2cncc(-c3ncco3)n2)c1C(=O)Nc1ccc(Cl)c(F)c1 [Example 63]" studysystem="spindle assembly checkpoint" cmp== measuredresult=6.44
molecule="COc1ccc(Oc2ccc(NC(=O)c3c(C)nsc3Nc3cc(C#N)ccn3)cn2)cc1 [Example 117]" studysystem="spindle assembly checkpoint" cmp== measuredresult=5.70
molecule="CCc1ccccc1NC(=O)c1c(C)nsc1Nc1cc(NC)ncn1 [Example 15]" studysystem="spindle assembly checkpoint" cmp=< measuredresult=4.70
molecule="Cc1nsc(Nc2cc(C#N)ccn2)c1C(=O)Nc1ccc(F)c(F)c1 [Example 27]" studysystem="spindle assembly checkpoint" cmp== measuredresult=6.77
molecule="Cc1nsc(Nc2ccc(C#N)cn2)c1C(=O)Nc1ccc(Cl)c(F)c1 [Example 52]" studysystem="spindle assembly checkpoint" cmp== measuredresult=7.80
molecule="Cc1nsc(Nc2cnc3ccccc3n2)c1C(=O)Nc1ccc(Oc2ccccc2)nc1 [Example 112]" studysystem="spindle assembly checkpoint" cmp== measuredresult=7.24
molecule="COc1ccc(NC(=O)c2c(C)nsc2Nc2nc3cccnc3s2)cn1 [Example 89]" studysystem="spindle assembly checkpoint" cmp== measuredresult=5.64
molecule="Cc1nsc(Nc2nc3c(C(F)(F)F)cccc3s2)c1C(=O)Nc1ccc(Cl)c(Cl)c1 [Example 102]" studysystem="spindle assembly checkpoint" cmp== measuredresult=6.10
molecule="CCOc1ccc(NC(=O)c2c(C)nsc2Nc2cnc3ccccc3n2)cn1 [Example 119]" studysystem="spindle assembly checkpoint" cmp== measuredresult=5.60
molecule="CCOC(=O)c1sc(Nc2snc(C)c2C(=O)Nc2ccc(OC)nc2)nc1C [Example 30]" studysystem="spindle assembly checkpoint" cmp== measuredresult=6.49
molecule="CCc1ccccc1NC(=O)c1c(C)nsc1Nc1ccncn1 [Example 2]" studysystem="spindle assembly checkpoint" cmp== measuredresult=4.96
molecule="CCc1ccccc1NC(=O)c1c(C)nsc1Nc1ncnc2ccccc12 [Example 10]" studysystem="spindle assembly checkpoint" cmp== measuredresult=4.96
molecule="COc1ccc(NC(=O)c2c(C)nsc2Nc2cnc3c(F)c(F)ccc3n2)cn1 [Example 43]" studysystem="spindle assembly checkpoint" cmp== measuredresult=6.96
molecule="Cc1nsc(Nc2cncc(-n3cccn3)n2)c1C(=O)Nc1ccc(F)c(F)c1 [Example 64]" studysystem="spindle assembly checkpoint" cmp== measuredresult=6.96
molecule="Cc1nsc(Nc2cc(C#N)ccn2)c1C(=O)Nc1ccc(Cl)c(F)c1 [Example 54]" studysystem="spindle assembly checkpoint" cmp== measuredresult=7.52
molecule="CCNC(=O)c1csc(Nc2snc(C)c2C(=O)Nc2ccc(F)c(F)c2)n1 [Example 99]" studysystem="spindle assembly checkpoint" cmp== measuredresult=6.52
molecule="CCc1cncc(Nc2snc(C)c2C(=O)Nc2ccc(F)c(F)c2)n1 [Example 76]" studysystem="spindle assembly checkpoint" cmp== measuredresult=7.89
molecule="CCc1ccccc1NC(=O)c1c(C)nsc1Nc1ncccc1C(F)(F)F [Example 3]" studysystem="spindle assembly checkpoint" cmp== measuredresult=5.29
molecule="Cc1nsc(Nc2nc3c(C(F)(F)F)ccnc3s2)c1C(=O)Nc1ccc(Cl)c(F)c1 [Example 103]" studysystem="spindle assembly checkpoint" cmp== measuredresult=6.09
molecule="Cc1nsc(Nc2cncc(-n3cccn3)n2)c1C(=O)Nc1ccc(Cl)c(F)c1 [Example 67]" studysystem="spindle assembly checkpoint" cmp== measuredresult=7.66
molecule="CCc1ccccc1NC(=O)c1c(C)nsc1Nc1ncnc2ccsc12 [Example 13]" studysystem="spindle assembly checkpoint" cmp== measuredresult=5.68
molecule="Cc1nsc(Nc2nc3c(C(F)(F)F)cccc3s2)c1C(=O)Nc1ccc(F)c(F)c1 [Example 51]" studysystem="spindle assembly checkpoint" cmp== measuredresult=7.46
molecule="COC(=O)c1cnc(Nc2snc(C)c2C(=O)Nc2ccc(OC)nc2)cn1 [Example 32]" studysystem="spindle assembly checkpoint" cmp== measuredresult=5.92
molecule="CCc1ccccc1NC(=O)c1c(C)nsc1Nc1cnccn1 [Example 1]" studysystem="spindle assembly checkpoint" cmp== measuredresult=5.31
molecule="Cc1nsc(Nc2ccc(C#N)cn2)c1C(=O)Nc1ccc(Cl)c(Cl)c1 [Example 62]" studysystem="spindle assembly checkpoint" cmp== measuredresult=7.48
molecule="CCc1ccccc1NC(=O)c1c(C)nsc1Nc1cnc2ccccc2n1 [Example 19]" studysystem="spindle assembly checkpoint" cmp== measuredresult=6.85
molecule="Cc1nsc(Nc2cnc3ccccc3n2)c1C(=O)Nc1ccc(Oc2ccc(F)cc2F)nc1 [Example 113]" studysystem="spindle assembly checkpoint" cmp== measuredresult=6.00
molecule="CCc1ccccc1NC(=O)c1c(C)nsc1Nc1cnc2cc(Cl)ccc2n1 [Example 86]" studysystem="spindle assembly checkpoint" cmp== measuredresult=6.31

Sourced from patent US9682995B2
